targetSystem: KRAS-G12C mutant (Homo sapiens, UniProt P01116, G12C)
assayMethodText: Gel shift assay (SDS-PAGE) for covalent modification of KRAS G12C
Type: binding
testContext: 0.5 μM compound, 1 μM GDP-bound KRAS G12C, 25° C., 5 minutes, shift indicative of covalent cysteine conjugation
recordedEndpoint: KRAS-G12C molecular weight shift

molecule	testResult
C=C(F)C(=O)N1CCN(c2nc(OC[C@@]34CCCN3C[C@H](F)C4)nc3c2CO[C@H](c2cccc4cccc(Cl)c24)C3)C[C@@H]1CC#N [Compound 64]	Yes
C=C(F)C(=O)N1CCN(c2nc(OCC3(CN(C)C)CC3)nc3c2COC(c2cccc4cccc(Cl)c24)C3)C[C@@H]1CC#N (stereo partly drawn) [Compound 70]	Yes
C=C(F)C(=O)N1CCN(c2nc(OCC3(CN4CCCC4)CC3)nc3c2CO[C@H](c2cccc4cccc(Cl)c24)C3)C[C@@H]1CC#N (single isomer, unassigned) [Compound 73]	Yes

----------
Test system: phospho-ERK1/2 (Thr202/Tyr204) in MIA PaCa-2 cell line
assayMethodText: pERK and ERK Western blot analysis, MIA PaCa-2
Assay type: cell-based
testContext: Homo sapiens; MIA PaCa-2 cell line, 4 hours after incubation; read-out: 2D pERK IC50
recordedEndpoint: IC50

Required: IC50, one value per compound below.
1. C=C(F)C(=O)N1CCN(c2nc(OC[C@@]34CCCN3C[C@H](F)C4)nc3c2CO[C@H](c2cccc4cccc(Cl)c24)C3)C[C@@H]1CC#N
2. C=C(F)C(=O)N1CCN(c2nc(OCC34CCCN3CCC4)nc3c2CO[C@@H](c2cccc4cccc(Cl)c24)C3)C[C@@H]1CC#N (single isomer, unassigned)
3. C=CC(=O)N1CCN(c2nc(OC[C@@H]3C[C@H](F)CN3C)nc3c2CO[C@H](c2cccc4ccccc24)C3)C[C@@H]1CC#N
4. C=CC(=O)N1CCN(c2nc(OC[C@@H]3CCCN3C)nc3c2COC(c2cccc4ccccc24)C3)C[C@@H]1CC#N (stereo partly drawn)
5. C=CC(=O)N1CCN(c2nc(OC[C@@H]3CCCN3C)nc3c2CO[C@@H](c2cccc4ccccc24)C3)C[C@@H]1CC#N
6. C=C(F)C(=O)N1CCN(c2nc(OC[C@@]34CCCN3C[C@H](F)C4)nc3c2COC(c2cccc4cccc(Cl)c24)C3)C[C@@H]1CC#N (stereo partly drawn)

Completion:
["1 to 10 nM", "> 100 nM", "10 to 100 nM", "10 to 100 nM", "> 100 nM", "1 to 10 nM"]

Value sought for every listed compound: IC50.
1. C=C(F)C(=O)N1CCN(c2nc(OC[C@@H]3CCCN3C)nc3c2CO[C@H](c2cccc4cccc(Cl)c24)C3)C[C@@H]1CC#N
2. C=C(F)C(=O)N1CCN(c2nc(OCC34CCCN3CCC4)nc3c2[C@H](C)O[C@H](c2cccc4cccc(C)c24)C3)C[C@@H]1CC#N
3. C=C(F)C(=O)N1CCN(c2nc(OCC34CCCN3CCC4)nc3c2CO[C@@H](c2cccc4c2CCCC4)C3)C[C@@H]1CC#N
4. C=C(F)C(=O)N1CCN(c2nc(OCC34CCCN3CCC4)nc3c2C(C)OC(c2cccc4cccc(Cl)c24)C3)C[C@@H]1CC#N (stereo partly drawn)
5. C=C(F)C(=O)N1CCN(c2nc(OC[C@@H]3CCCN3C)nc3c2COC(c2cccc4ccccc24)C3)C[C@@H]1CC#N (stereo partly drawn)

Completion:
1. 10 to 100 nM
2. 10 to 100 nM
3. > 100 nM
4. 10 to 100 nM
5. > 100 nM

The reported value for C=C(F)C(=O)N1CCN(c2nc(OCC3(CN4CCCC4)CC3)nc3c2COC(c2cccc4cccc(Cl)c24)C3)C[C@@H]1CC#N (mixture of isomers) in terms of IC50 is 10 to 100 nM
